# Test system: Essential thrombocythemia cell line SET-2 cells (harboring endogenous JAK2 point mutation)
# experimental protocol: SET-2 cell proliferation assay (CellTiter-Glo)
# Format: cell-based
# measurement conditions: Homo sapiens, 72 hours incubation, read-out: SET2 cell proli. IC50
Quick rule for you: IC50 under 2 µM gets Criterion met, anything else gets Criterion not met.

Check out these entries, answers already filled in.
>  <molecule>
O=C1NCCOc2ccc(F)cc2CCc2ccn3ncc1c3n2 [Example 102]

>  <group>
Criterion not met

$$$$
>  <molecule>
CC(C)C1Nc2ccn3ncc(c3n2)C(=O)NCCOc2ccc(F)cc21 (stereo not drawn) [Example 67]

>  <group>
Criterion met

$$$$
>  <molecule>
O=C1NCCOc2ccc(F)cc2CN(CCO)c2ccn3ncc1c3n2 [Example 47]

>  <group>
Criterion not met

$$$$
>  <molecule>
CN1Cc2cc(F)cnc2OCCNC(=O)c2cnn3ccc1nc23 [Example 61]

>  <group>
Criterion not met

$$$$
>  <molecule>
CCN1Cc2cc(F)ccc2OCCNC(=O)c2cnn3ccc1nc23 [Example 43]

>  <group>
Criterion met

$$$$
>  <molecule>
O=C1NCCOc2ccc(F)cc2C(CO)Nc2ccn3ncc1c3n2 (stereo not drawn) [Example 98]

>  <group>
Criterion met

$$$$
>  <molecule>
Cc1nn2ccc3nc2c1C(=O)NCCOc1ccc(F)cc1CN3C [Example 40]

>  <group>
Criterion not met

$$$$
>  <molecule>
C[C@H]1Nc2ccn3ncc(c3n2)C(=O)NCCOc2ccc(F)cc21 [Example 51-1]

>  <group>
Criterion met

$$$$

For this molecule, is IC50 lower than 2 µM? CC1Oc2ccc3ncc(n3n2)C(=O)NCCOc2ccc(F)cc21 (stereo not drawn) [Example 41]
Criterion met
